The origin of these recorded values is PubChem BioAssay (NCI).

METHOD DESCRIPTION: NCI Yeast Anticancer Drug Screen. Data for the sgs1 mgt1 strain (AID 161);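 note: 0% = growth of cultures given vehicle only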
PARTICULARS: S. cerevisiae sgs1 mgt1 strain, at 50.0 µM, active compounds read high
Compounds without any hit were thinned out: in the full panel of roughly 79,000, 15% have a hit.
I'd be grateful if you could share measured growth inhibition for these entries.
One number for each entry, in %.

Give measured growth inhibition for every item shown.
1. O=C(NCCCl)NCC1CCCCO1 (stereo not drawn)
2. COC(=O)CCC1(CCC(=O)OC)CCCCCCC(CCC(=O)OC)(CCC(=O)OC)C(=O)C1=O
3. Cc1nc2cc(N)c(Cl)cc2[nH]1
4. CC(C)Oc1ccc(CCOC(=O)Nc2cccc3ccccc23)cc1
5. CC1=C(C#[N+][O-])C(C)(C)CCC1
6. CCCCN(CCCC)CCC(O)c1ccc(OC)c2ccccc12 (stereo not drawn)
7. Cc1ccc(NC(=O)NCc2ccncc2)cc1NC(=O)NCc1ccncc1
8. N=C(CNC(=O)OCc1ccccc1)N1CCCC1C(=O)O (stereo not drawn)

1. 0.2
2. -1.25
3. 9.95
4. 2
5. -2.9
6. 56.2
7. 20.8
8. 0.9

Give measured growth inhibition for every item shown.
1. C/C(=N\Nc1ccc([N+](=O)[O-])cc1)C(=O)N(C)Nc1ccccc1
2. NC(=S)NO
3. Nc1nc(N)c2c(n1)NCN(OCCOc1ccc(Cl)cc1Cl)C2
4. CC1=NN(C(=O)CC(=O)NC(=O)CC(=O)Nc2ccccc2F)C(=O)C1N=Nc1ccc([N+](=O)[O-])cc1 (stereo not drawn)

1: -38; 2: 2.35; 3: 9.15; 4: 30

Give measured growth inhibition for every item shown.
1. Nc1nc2c(C(=O)NCc3cccs3)nnn2c2cccc(Cl)c12
2. O=[N+]([O-])c1ccc(Sc2c3ccccc3nc3ccccc23)cn1
3. O=C(N/N=C\c1ccc([N+](=O)[O-])cc1)Nc1ccc2ccccc2c1
4. C#Cc1cccc(N=Cc2cc(Cl)cc(C)c2O)c1

-5.35
-12.5
1.85
36.5
